Attribution: PubChem BioAssay (NCI)

- Tested on: OVCAR-5 ovarian
- assay.details: NCI tumour cell line growth inhibition, 384-well format; in the data active = GI50 below about 0.43 µM; inactive = the rest
Log the outcome using a class from 1.0 (active), 0.0 (inactive)

These recorded examples may help you get a feel for the data.
> print(dat)
                                   compound           target  class.assignment
1  CN1C(=O)[C@@H](NC(=O)[C@H](CCC(F)(F)F)[C@H](CCC(F)(F)F)C(N)=O)N=C(c2ccccc2)c2ccccc21  OVCAR-5 ovarian               0.0
2  C[C@@H]1Cc2c([nH]c3ccccc23)[C@@H](c2c(F)cc(NC3CN(CCCF)C3)cc2F)N1CC(F)(F)CO  OVCAR-5 ovarian               0.0
3  CN1CCN(c2cc(C(=O)Nc3cc4cc(-c5cnn(C)c5)ccc4cn3)ccn2)CC1  OVCAR-5 ovarian               1.0

Please look at the following compound next.
*Q* // return assay outcome for Nc1ncnc2c1c(-c1cccc(OCc3ccccc3)c1)cn2C1CC(CN2CCC2)C1 (centres undefined)
*A* 0.0
